- assay-procedure: AUC in anesthetized C57BL/6J mouse plasma at 10 mg/kg, ip administered as single dose measured upto 240 mins by LC-MS/MS analysis
- Type: ADME, organism-based
- Design: time < 4 hr, dose 10 mg/kg, route intraperitoneal
recorded-metric: AUC at 4 h (ng·h/mL)
Field: numeric (ng·h/mL). Do not append units.

compound	AUC at 4 h [ng·h/mL]
CCCCCc1cc(O)c(C/C=C(\C)CCC=C(C)C)c(O)c1C(=O)O	99300

Name the recorded AUC at 4 h for CCCCCc1cc2c(c(O)c1C(=O)O)[C@@H]1C=C(C)CC[C@H]1C(C)(C)O2 [DELTA9-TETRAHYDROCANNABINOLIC ACID A] .
5030

Consider next the compound C=C(C)[C@@H]1CCC(C)=C[C@H]1c1c(O)cc(CCCCC)c(C(=O)O)c1O in the same way.
78300

Consider next the compound CCCc1cc(O)c(C/C=C(\C)CCC=C(C)C)c(O)c1C(=O)O in the same way.
199000

---

- assay-procedure: Ratio of drug level in anesthetized C57BL/6J mouse brain to plasma at 5 mg/kg, ip administered as single dose measured upto 240 mins in presence of vegetable oil by LC-MS/MS analysis
- Assay type: ADME, organism-based
- applied-conditions: read-out: BPR
recorded-metric: Kp at 4 h
Note: the reply should be a number with no unit written.

Name the recorded Kp at 4 h for C=C(C)[C@@H]1CCC(C)=C[C@H]1c1c(O)cc(CCCCC)c(C(=O)O)c1O .
0.04

---

- assay-procedure: AUC in anesthetized C57BL/6J mouse brain at 10 mg/kg, ip administered as single dose measured upto 240 mins by LC-MS/MS analysis
- Type: ADME, organism-based
- Set-up: dose 10 mg/kg, time < 4 hr, route intraperitoneal
- applied-conditions: in vivo, 4 h
recorded-metric: AUC (µg·min/g)
Field: numeric (µg·min/g). Do not append units.

molecule-smiles	assay-value
C=C(C)[C@@H]1CCC(C)=C[C@H]1c1c(O)cc(CCCCC)c(C(=O)O)c1O	183

Here is the next item to consider.
Name the recorded AUC for CCCCCc1cc(O)c(C/C=C(\C)CCC=C(C)C)c(O)c1C(=O)O .
94

---

- assay-procedure: Ratio of drug level in anesthetized C57BL/6J mouse brain to plasma at 5 mg/kg, ip administered as single dose measured upto 240 mins by LC-MS/MS analysis
- Type: ADME, organism-based
- applied-conditions: read-out: BPR
recorded-metric: Kp at 4 h
Note: the reply should be a number with no unit written.

Name the recorded Kp at 4 h for C=C(C)[C@@H]1CCC(C)=C[C@H]1c1c(O)cc(CCC)c(C(=O)O)c1O .
0.02

---

- assay-procedure: Cmax in anesthetized C57BL/6J mouse brain at 5 mg/kg, ip administered as single dose measured upto 240 mins by LC-MS/MS analysis
- Type: ADME, organism-based
- Set-up: dose 5 mg/kg, route intraperitoneal
- applied-conditions: C57BL/6J, brain, read-out: Cmax
recorded-metric: Cmax (ng/mL)
Field: numeric (ng/mL). Do not append units.

Name the recorded Cmax for C=C(C)[C@@H]1CCC(C)=C[C@H]1c1c(O)cc(CCC)c(C(=O)O)c1O .
800

---

Documented half-life across a set of molecules
- assay-procedure: Half life in anesthetized C57BL/6J mouse brain at 10 mg/kg, ip administered as single dose measured upto 240 mins by LC-MS/MS analysis
- Assay type: ADME, organism-based
Field: numeric (min). Do not append units.

Worked cases, answers included:
molecule	units-of-measure	half-life
CCCCCc1cc(O)c(C/C=C(\C)CCC=C(C)C)c(O)c1C(=O)O [CANNABIGEROLIC ACID]	min	31
C=C(C)[C@@H]1CCC(C)=C[C@H]1c1c(O)cc(CCCCC)c(C(=O)O)c1O [CANNABIDIOLIC ACID]	min	41

Here is the next item to consider.
Name the recorded half-life for CCCc1cc(O)c(C/C=C(\C)CCC=C(C)C)c(O)c1C(=O)O .
29
